assay: NCI Yeast Anticancer Drug Screen. Data for the CLN2oe strain (AID 163);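 further: 0% = growth of vehicle-only control cultures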; settings: S. cerevisiae CLN2oe strain, at 33.0 µM
Compounds without any hit were thinned out: in the full panel of roughly 79,000, 15% have a hit. Active and inactive are the calls of the source. No stated cut-off is given here; in the data, active means growth inhibition above about 70%; inactive means the rest.
Your response should consist of one outcome taken from active, inactive

INSERT INTO results (compound, assigned_class) VALUES
  ('O=[n+]1c2ccc(Cl)cc2n([O-])c2ccc(Cl)cc21', 'inactive');

Okay, now this compound:
Prompt: Record request — test call for CC(C)C1=CC2=C[C@H](O)[C@H]3C(C)(C)CCC[C@]3(C)C2=C(O)C1=O
Response: active

* * *

experiment: NCI Yeast Anticancer Drug Screen. Data for the rad50EPP+ strain (AID 151);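 further: 0% = growth of vehicle-treated control cultures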; details: S. cerevisiae rad50 mutant strain, at 100.0 µM, active compounds read high
About 79,000 compounds went through this panel and 15% of them were active in at least one assay; those are over-represented in the sample as a whole. Activity calls are given as the source filed them. Cut-off read from the data, not from the text of the source: active = growth inhibition above about 70%; inactive = the rest.
OBSERVED_PROPERTY: growth inhibition

Below: 3 compounds and their reported growth inhibition.
INSERT INTO assay_data (compound_structure_string, observed_property, result) VALUES
  ('Cn1c(=O)c(-c2ccccc2)c(N=[N+]=[N-])c2ccccc21', 'growth inhibition', '-18% (inactive)'),
  ('S=C(S)NN1CCOCC1', 'growth inhibition', '89% (active)'),
  ('O=C(NCCCCCCCN1CCCCCCC1)C(C1CCCCC1)C1CCCCC1', 'growth inhibition', '41% (inactive)');

Given item CCN(CC)[P+](c1ccccc1O)(N(CC)CC)N(CC)CC , the value recorded as its growth inhibition is -34% (inactive)

# growth inhibition of CCNc1nnc(CSc2nc(-c3ccccc3)c(-c3ccccc3)[nH]2)s1 = 5% (inactive)

Record Cc1nn(-c2cc(Cl)ccc2[N+](=O)[O-])c(C)c1Cl , field growth inhibition: 10% (inactive)

* * *

test: NCI Yeast Anticancer Drug Screen. Data for the mgt1 strain (AID 153); settings: S. cerevisiae mgt1 mutant growth inhibition; at 3.7 µM; active compounds read high
This is part of a sample that, as a whole, favours compounds with a hit. Of some 79,000 tested, about 15% had one in any assay.
Entries and their measured growth inhibition follow.
State just the number; it will be interpreted in %.

Sample answers from the record:
INSERT INTO results (compound, quantitative_result) VALUES
  ('CNC1C(OC2C(OC3C(O)C(O)C(N=C(N)N)C(O)C3N=C(N)N)OC(C)C2(O)CO)OC(CO)C(O)C1O (centres undefined)', 7),
  ('Cc1c(C(Cc2ccccc2N(C)C(=O)/C=C\C(=O)O)c2c[nH]c3ccccc23)c2ccccc2n1C (centres undefined)', -3),
  ('CCCS(=O)(=O)Nc1ccc(Nc2c3ccccc3nc3ccccc23)c(OC)c1', -64),
  ('O=C(O)c1ccccc1NC(=S)c1ccccc1', 0);

Record N/C(=N\OC(=O)NC(Cl)=C(Cl)Cl)c1cc(C(F)(F)F)cc(C(F)(F)F)c1 , field growth inhibition: 7

Looking up COc1ccc2nc3c([N+](=O)[O-])ccc(NCCN(C)C)c3c(NCCN(C)C)c2c1 , I see its growth inhibition listed as 2

Record CCCC/C=C/C(CC)(C(=O)OCC)C(=O)OCC . Reported growth inhibition: -1

Value of growth inhibition reported for the compound c1ccc2c(c1)Oc1cccc3cccc-2c13 is -8

Per the records, this compound ( O=C1NC(=O)C2C3C=CC(C3)C12 (centres undefined) ) has growth inhibition equal to 23

The compound listed as CC(/C=C/c1ccc2c(c1)OCO2)[N+](=O)[O-] (centres undefined) has a reported growth inhibition of 16

Input Nc1ccc2c(c1)C(=O)c1cccc(N)c1C2=O . Output growth inhibition: 4

Entry O=C(OCC=C1CCCC1)c1cc([N+](=O)[O-])cc([N+](=O)[O-])c1 ; growth inhibition = -1

* * *

Listed compounds paired with reported growth inhibition
assay: NCI Yeast Anticancer Drug Screen. Data for the CLN2oe strain (AID 163);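 further: 0% = growth of vehicle-only control cultures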; details: S. cerevisiae CLN2oe strain, at 3.7 µM, active compounds read high
The panel holds about 79,000 compounds, 15% with a hit somewhere; the sample as a whole holds those more often.
Just the number in %, nothing appended.

growth inhibition reading for NC(N)=N/N=C\c1c2ccccc2cc2ccccc12 : 6

Form field growth inhibition, entry CCCCOC(=O)N[C@H]1CCc2cc(OC)c(OC)c(OC)c2-c2ccc(SC)c(=O)cc21 : -5

Looking up OC1CCCc2c1cc1ccc3cccc4ccc2c1c34 (stereo not drawn) , I found its growth inhibition recorded as -14

* * *

assay: NCI Yeast Anticancer Drug Screen. Data for the wt2 strain (AID 169);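 further: 0% = growth of vehicle-treated yeast cultures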; settings: S. cerevisiae wt2 strain growth inhibition; at 3.7 µM; active compounds read high
About 79,000 compounds went through this panel and 15% of them were active in at least one assay; those are over-represented in the sample as a whole. Calls of active or inactive are those of the source. Cut-off read from the data, not from the text of the source: active = growth inhibition above about 70%; inactive = the rest.
OBSERVED_PROPERTY: growth inhibition

Observe how each entry below is paired with its result.
INSERT INTO assay_data (molecule, observed_property, result) VALUES
  ('O=C(OCC=C1CCCC1)c1cc([N+](=O)[O-])cc([N+](=O)[O-])c1', 'growth inhibition', '-3% (inactive)'),
  ('CCC[CH2][Ge]([CH2]CCC)([CH2]CCC)[O]C(=O)C(OC)c1ccccc1 (stereo unspecified)', 'growth inhibition', '-4% (inactive)'),
  ('CC(=O)OCCOCNC(=S)N/N=C(\C)c1cnccn1', 'growth inhibition', '-24% (inactive)');

Sure, the documented growth inhibition for CCNc1nnc(CSc2nc(-c3ccccc3)c(-c3ccccc3)[nH]2)s1 is -9% (inactive)

growth inhibition recorded for this molecule, COc1ccc(/C=C2\SC(=S)N(/C=C/c3nc4ccccc4[nH]c3=O)C2=O)cc1OC , is 3% (inactive)

Item: Cc1ccc(N)c(S)c1 | growth inhibition: -25% (inactive)

GET /value?item= CN(C)c1ccc(Sc2ccc3nc(N)nc(N)c3c2)cc1 &field=growth inhibition returns -1% (inactive)

molecule COC1=CC(=O)C2C(C1=O)C(c1ccc(Cl)cc1)[C@@H]2C (stereo partly specified) , growth inhibition observed: 22% (inactive)

Just so you know, measured growth inhibition for Nc1ncncc1C(C1=C(O)COC1=O)C1=C(O)COC1=O came out at 1% (inactive)

// field: growth inhibition; key: Cc1ccc(NN(NC(=O)OC(C)C)C(=O)OC(C)C)cc1 ; value = -1% (inactive)

Memo: O=C1C2CC[C@@H]3C(=O)C(Cl)(Cl)[C@@H]3CCC2C1(Cl)Cl (stereo partly specified) , reported growth inhibition: 3% (inactive)

* * *

Assay: NCI Yeast Anticancer Drug Screen. Data for the sgs1 mgt1 strain (AID 161);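 further: 0% = growth of cultures given vehicle only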
Conditions: S. cerevisiae sgs1 mgt1 strain, at 50.0 µM (retest, dose inferred, filed as 5.0)
Method: Growth inhibition of yeast strains with defined genetic alterations is measured as a screen for potential anti-cancer activity. Selected strains with alterations in DNA damage repair or cell cycle control were exposed to compounds and growth inhibition was measured relative to vehicle treated controls. The strain used in this assay is sgs1 mgt1
Compounds without any hit were thinned out: in the full panel of roughly 79,000, 15% have a hit. Activity calls are given as the source filed them. Rule as the data show it: active = growth inhibition above about 70%; inactive = the rest.
Outcomes you can answer with include only these: 1 (active), -1 (inactive)

Prompt: Per the records of this test, what outcome belongs to COc1ccc(N=C2C(=O)Nc3ccc(Br)cc32)cc1 ?
Response: -1

Prompt: Recorded test call requested for COC(=O)CSSCc1ccc([N+](=O)[O-])cc1
Response: 1

* * *

Assay: NCI Yeast Anticancer Drug Screen. Data for the cln2 rad14 strain (AID 165);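 further: 0% = growth equal to vehicle treated cultures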
Conditions: S. cerevisiae cln2 rad14 strain, at 50.0 µM (retest, dose inferred, filed as 5.0), active compounds read high
Method: Growth inhibition of yeast strains with defined genetic alterations is measured as a screen for potential anti-cancer activity. Selected strains with alterations in DNA damage repair or cell cycle control were exposed to compounds and growth inhibition was measured relative to vehicle treated controls. The strain used in this assay is cln2 rad14
This is part of a sample that, as a whole, favours compounds with a hit. Of some 79,000 tested, about 15% had one in any assay.
Form field: growth inhibition (one value per entry).
Write the number in % without appending the unit.

Consider the following illustrative entries.
INSERT INTO measurements (compound, observed_property, quantitative_result) VALUES
  ('Cc1cccc2c(C(O)CBr)cc(-c3ccc(Cl)cc3)nc12 (stereo unspecified)', 'growth inhibition', 95),
  ('Clc1ccccc1C1OC1c1ccccc1Cl (stereo unspecified)', 'growth inhibition', 99),
  ('Cc1ccc(CSC(N)=Nc2ccccc2)cc1C', 'growth inhibition', 14);

growth inhibition recorded for this compound, CN(C)CCn1c2c3ccccc3ccc2c2oc(=O)c3ccccc3c21 , is 93

The recorded growth inhibition for entry CC(=O)OC1CCC2(C)C(=CCC3C4CCC5(OC6CC(C)CN(C(C)=O)C6C5C)C(C)=C4C(=O)C32)C1 (stereo unspecified) equals 98

Value of measured growth inhibition for the entry CC(Br)C(=O)c1ccc2cc(Br)c3ccccc3c2c1 (stereo unspecified) : -32
